Structures can show the parent of a compound that is named as a salt.
PROPERTY_LABEL: melting point (°C)

# COMPOUND, PROPERTY_LABEL, READING_UNIT, OBSERVED_MEASUREMENT
measured = [
    ("O=C1NC(=O)C(Nc2ccc(CCNC[C@H](O)COc3ccc(O)cc3)cc2)S1 (stereo partly drawn) [Example 5]", "melting point", "°C", 165),
]

(I) O=C1NC(=O)C(Nc2ccc(CCNC[C@@H](O)COc3cccc4[nH]c(=O)[nH]c34)cc2)S1 (stereo partly drawn) (as salt: salt) [Example 19]
(II) CN(c1ccc(CCNC[C@H](O)COc2ccccc2)cc1)C1SC(=O)NC1=O (stereo partly drawn) (as salt: salt) (hydrate or solvate) [Example 17]
Query: Form field 'greater melting point' accepts I or II ; which applies? State the label of the item chosen.
Response: I

----------
Structures can show the parent of a compound that is named as a salt.
PROPERTY_LABEL: melting point (°C)

Consider the following illustrative entries.
# COMPOUND, melting point [°C]
data = [
    ("O=C1NC(=O)C(Nc2ccc(CCNC[C@H](O)COc3ccc(F)cc3)cc2)S1 (stereo partly drawn) (as salt: salt) (hydrate or solvate)", 55),
    ("O=C1NC(=O)C(Nc2ccc(CCNC[C@H](O)COc3ccccc3)cc2)S1 (stereo partly drawn) (as salt: salt) (hydrate or solvate)", 55),
    ("COc1ccc(OC[C@@H](O)CNCCc2ccc(NC3SC(=O)NC3=O)cc2)cc1 (stereo partly drawn) (as salt: salt) (hydrate or solvate)", 56),
    ("O=C1NC(=O)C(Nc2ccc(CCNC[C@H](O)c3ccccc3)cc2)S1 (stereo partly drawn) (as salt: salt)", 55),
]

(1) O=C1NC(=O)C(Nc2ccc(CCNC[C@H](O)COc3ccc4occc4c3)cc2)S1 (stereo partly drawn) (as salt: salt) (hydrate or solvate)
(2) CS(=O)(=O)Nc1cc([C@H](O)CNCCc2ccc(NC3SC(=O)NC3=O)cc2)ccc1O (stereo partly drawn) (as salt: salt) (hydrate or solvate)
Query: Of the two listed items, which has the higher melting point? First: 1 Second: 2 Answer by quoting the chosen item's label.
Response: 2

----------
Counter-ions that a name gives are not always drawn.
PROPERTY_LABEL: melting point (°C)

# MOLECULE, OBSERVED_MEASUREMENT
data = [
    ("O=C1NC(=O)C(Nc2ccc(CCNC[C@H](O)COc3ccc(OCc4ccccc4)cc3)cc2)S1 (stereo partly shown) [Example 4]", 152),
    ("O=C1NC(=O)C(Nc2ccc(CCNC[C@H](O)COc3cccc4[nH]c5ccccc5c34)cc2)S1 (stereo partly shown) (as salt: salt) (hydrate or solvate) [Example 13]", 140),
    ("O=C1NC(=O)C(Nc2ccc(CCNC[C@H](O)c3cccc(Cl)c3)cc2)S1 (stereo partly shown) [Example 6]", 162),
]

----------
molecular target: human β3-AR (Homo sapiens, UniProt P13945); construct: Full length β3 AR clones (402 amino acids) containing the last 6 amino acids of hβ3; expressed in transfected cells; host or cells: CHO (Chinese hamster ovary) cells; experiment: cAMP accumulation (SPA) in CHO cells transfected with human β3 adrenergic receptor; format: cell-based; conditions: CHO cells expressing human β3-AR, cAMP, 30 min at 37° C., 10^-9 M to 10^-5 M; read-out: EC50(β3)
Sequence (P13945 whole entry): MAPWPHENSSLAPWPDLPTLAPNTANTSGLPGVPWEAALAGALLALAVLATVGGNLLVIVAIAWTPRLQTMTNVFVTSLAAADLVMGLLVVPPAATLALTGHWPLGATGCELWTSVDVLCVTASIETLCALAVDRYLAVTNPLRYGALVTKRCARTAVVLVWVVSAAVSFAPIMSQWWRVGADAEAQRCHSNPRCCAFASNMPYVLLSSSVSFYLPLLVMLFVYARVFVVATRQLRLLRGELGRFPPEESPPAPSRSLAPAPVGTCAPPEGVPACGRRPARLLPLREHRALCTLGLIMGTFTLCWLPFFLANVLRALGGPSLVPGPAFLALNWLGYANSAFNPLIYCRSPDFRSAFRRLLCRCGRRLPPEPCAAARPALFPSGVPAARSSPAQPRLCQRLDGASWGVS
PROPERTY_LABEL: EC50 (µM)

# MOLECULE, TARGET, PROPERTY_LABEL, OBSERVED_MEASUREMENT
rows = [
    ("CN(c1ccc(CCNC[C@H](O)COc2ccccc2)cc1)C1SC(=O)NC1=O (some centres unmarked)", "human β3-AR (Homo sapiens, UniProt P13945)", "EC50", 0.017),
    ("CS(=O)(=O)Nc1cc([C@H](O)CNCCc2ccc(NC3SC(=O)NC3=O)cc2)ccc1O (some centres unmarked)", "human β3-AR (Homo sapiens, UniProt P13945)", "EC50", 0.009),
    ("O=C1NC(=O)C(Nc2ccc(CCNC[C@H](O)COc3cccc4[nH]c5ccccc5c34)cc2)S1 (some centres unmarked)", "human β3-AR (Homo sapiens, UniProt P13945)", "EC50", 0.012),
]

(A) O=C1NC(=O)C(Nc2ccc(CCNC[C@H](O)COc3ccc(F)cc3)cc2)S1 (some centres unmarked)
(B) O=C1NC(=O)C(Nc2ccc(CCNC[C@H](O)c3cccc(Cl)c3)cc2)S1 (some centres unmarked)
Query: Consider entries A and B . Which has the numerically lower EC50? The response must carry the label of the picked entry.
Response: B
(B: 0.007 µM, A: 0.014 µM)

----------
Structures can show the parent of a compound that is named as a salt.
PROPERTY_LABEL: melting point

Query: Which value of melting point has been reported for O=C1NC(=O)C(N(Cc2ccc(Br)cc2)c2ccc(CCNC[C@H](O)COc3ccccc3)cc2)S1 (stereo partly drawn) (hydrate or solvate) in the records?
Response: 52 to 54 °C

Query: For O=C1NC(=O)C(N(Cc2ccc(Br)cc2)c2ccc(CCNC[C@H](O)COc3ccc(O)cc3)cc2)S1 (stereo partly drawn) (hydrate or solvate) then?
Response: 79 °C (dec.)

Query: What would you report for O=C1NC(=O)C(N(Cc2ccc(Br)cc2)c2ccc(CCNC[C@H](O)COc3ccc(OCc4ccccc4)cc3)cc2)S1 (stereo partly drawn) (as salt: salt) ?
Response: 50 to 52 °C

----------
Where a name gives a salt, the structure may show the parent alone.
PROPERTY_LABEL: melting point

The examples below pair each entry with its known result.
# COMPOUND, PROPERTY_LABEL, OBSERVED_MEASUREMENT
measured = [
    ("O=C1NC(=O)C(Nc2ccc(CCNC[C@H](O)COc3ccc4ccccc4c3)cc2)S1 (stereo partly drawn) (hydrate or solvate)", "melting point", "90 to 91 °C"),
    ("O=C1NC(=O)C(Nc2ccc(CCNC[C@H](O)COc3ccc4c(c3)OCO4)cc2)S1 (stereo partly drawn) (hydrate or solvate)", "melting point", "65 °C (dec.)"),
    ("CN(c1ccc(CCNC[C@H](O)COc2ccc(OCc3ccccc3)cc2)cc1)C1SC(=O)NC1=O (stereo partly drawn) (as salt: salt)", "melting point", "51 to 53 °C"),
    ("CN1C(=O)SC(Nc2ccc(CCNC[C@H](O)COc3ccc(OCc4ccccc4)cc3)cc2)C1=O (stereo partly drawn) (as salt: HBr)", "melting point", "165 to 167 °C"),
]

Query: If you can, please state the reported melting point value of O=C1NC(=O)C(Nc2ccc(CCNC[C@@H](O)c3cccnc3)cc2)S1 (stereo partly drawn) (hydrate or solvate) .
Response: 46 to 48 °C

Query: Note, next up: CC(Cc1ccc(NC2SC(=O)NC2=O)cc1)NC[C@H](O)c1cccc(Cl)c1 (stereo partly drawn) (as salt: salt) (hydrate or solvate)
Response: 83 to 85 °C

Query: Note, next up: O=C1NC(=O)C(N(CC#Cc2ccc(F)cc2)c2ccc(CCNC[C@H](O)COc3ccc(OCc4ccccc4)cc3)cc2)S1 (stereo partly drawn) (hydrate or solvate)
Response: 99 to 101 °C

Query: One more compound: O=C1NC(=O)C(Nc2ccc(CCNC[C@H](O)COc3cccc(O)c3)cc2)S1 (stereo partly drawn) (as salt: salt) (hydrate or solvate)
Response: 65 °C

Query: Also O=C1NC(=O)C(Nc2ccc(CCNC[C@H](O)COc3ccc(-c4ccccc4)cc3)cc2)S1 (stereo partly drawn) , if possible.
Response: 70 to 71 °C

----------
Where a name gives a salt, the structure may show the parent alone.
PROPERTY_LABEL: melting point

Past entries and their recorded results:
# COMPOUND, OBSERVED_MEASUREMENT
records = [
    ("O=C1NC(=O)C(Nc2ccc(CCNC[C@H](O)COc3ccc(Oc4ccccc4)cc3)cc2)S1 (stereo partly shown) (as salt: salt)", "72 to 74 °C"),
    ("O=C1NC(=O)C(Nc2ccc(CCNC[C@H](O)c3cccnc3)cc2)S1 (stereo partly shown) (hydrate or solvate)", "65 to 67 °C"),
    ("CN1C(=O)SC(Nc2ccc(CCNC[C@H](O)c3cccc(Cl)c3)cc2)C1=O (stereo partly shown)", "129 to 131 °C"),
]

Query: Param item = O=C1NC(=O)C(Nc2ccc(CCNCC(O)COc3cccc4ccccc34)cc2)S1 (stereo not shown) (hydrate or solvate) ; retrieve measured melting point.
Response: 61 to 62 °C
